Measured inhibition at 1 µg/mL by item
system: Trypanosoma brucei brucei; test: Antimicrobial activity against bloodstream forms of Trypanosoma brucei brucei 90-13 at 1 ug/ml after 72 hrs by resazurin assay; type: functional; conditions: 90-13, 72 h

molecule: Cc1cccc(N2C(=O)C[C@]3(CSc4[nH]c(=O)sc4[C@@H]3c3ccccc3O)C2=O)c1 (relative stereo)
measured_target: Trypanosoma brucei brucei
unit_of_measure: %
relational_operator: =
inhibition at 1 µg/mL: 5.5

molecule: O=C1C[C@]2(CSc3[nH]c(=O)sc3[C@@H]2c2ccccc2O)C(=O)N1c1ccc(Cl)cc1 (relative stereo)
measured_target: Trypanosoma brucei brucei
unit_of_measure: %
relational_operator: =
inhibition at 1 µg/mL: 13.4

molecule: COc1cc([C@H]2c3sc(=O)[nH]c3SC[C@@]2(CC(=O)O)C(=O)O)ccc1OCc1ccccc1 (relative stereo)
measured_target: Trypanosoma brucei brucei
unit_of_measure: %
relational_operator: =
inhibition at 1 µg/mL: 18.1

molecule: O=C1C[C@]2(CSc3[nH]c(=O)sc3[C@@H]2c2ccccc2O)C(=O)N1c1ccc(O)cc1 (relative stereo)
measured_target: Trypanosoma brucei brucei
unit_of_measure: %
relational_operator: =
inhibition at 1 µg/mL: 7

molecule: CN(C)c1ccc([C@H]2c3sc(=O)[nH]c3SC[C@]23CC(=O)N(c2ccc(Cl)cc2)C3=O)cc1 (relative stereo)
measured_target: Trypanosoma brucei brucei
unit_of_measure: %
relational_operator: =
inhibition at 1 µg/mL: 36.8

molecule: COc1cc([C@H]2c3sc(=O)[nH]c3SC[C@@]2(CC(=O)O)C(=O)O)ccc1OC(F)F (relative stereo)
measured_target: Trypanosoma brucei brucei
unit_of_measure: %
relational_operator: =
inhibition at 1 µg/mL: 11.3

molecule: COc1ccc([C@H]2c3sc(=O)[nH]c3SC[C@]23CC(=O)N(c2ccc(Cl)cc2)C3=O)cc1OC (relative stereo)
measured_target: Trypanosoma brucei brucei
unit_of_measure: %
relational_operator: =
inhibition at 1 µg/mL: 82.4

molecule: CN(C)c1ccc([C@H]2c3sc(=O)[nH]c3SC[C@@]2(CC(=O)O)C(=O)O)cc1 (relative stereo)
measured_target: Trypanosoma brucei brucei
unit_of_measure: %
relational_operator: =
inhibition at 1 µg/mL: 5.3

molecule: CCN(CC)c1ccc([C@H]2c3sc(=O)[nH]c3SC[C@]23CC(=O)N(c2ccc(Cl)cc2)C3=O)cc1 (relative stereo)
measured_target: Trypanosoma brucei brucei
unit_of_measure: %
relational_operator: =
inhibition at 1 µg/mL: 21.1

molecule: COc1ccc([C@H]2c3sc(=O)[nH]c3SC[C@]23CC(=O)N(c2ccc(Cl)cc2)C3=O)cc1 (relative stereo)
measured_target: Trypanosoma brucei brucei
unit_of_measure: %
relational_operator: =
inhibition at 1 µg/mL: 10.6

molecule: CCN(CC)c1ccc([C@H]2c3sc(=O)[nH]c3SC[C@@]2(CC(=O)O)C(=O)O)cc1 (relative stereo)
measured_target: Trypanosoma brucei brucei
unit_of_measure: %
relational_operator: <
inhibition at 1 µg/mL: 5

====

system: Trypanosoma brucei brucei; test: Antimicrobial activity against bloodstream forms of Trypanosoma brucei brucei 90-13 at 10 ug/ml after 72 hrs by resazurin assay; type: functional; conditions: 90-13, 72 h
Measured inhibition at 10 µg/mL by item
measure_name: inhibition at 10 µg/mL (%)

molecule: CCN(CC)c1ccc([C@H]2c3sc(=O)[nH]c3SC[C@@]2(CC(=O)O)C(=O)O)cc1 (relative stereo)
relational_operator: =
value_reported: 5.6
//
molecule: O=C1C[C@]2(CSc3[nH]c(=O)sc3[C@@H]2c2ccccc2O)C(=O)N1c1ccc(Cl)cc1 (relative stereo)
relational_operator: =
value_reported: 11.5
//
molecule: Cc1cccc(N2C(=O)C[C@]3(CSc4[nH]c(=O)sc4[C@@H]3c3ccccc3O)C2=O)c1 (relative stereo)
relational_operator: =
value_reported: 24.5
//
molecule: COc1cc([C@H]2c3sc(=O)[nH]c3SC[C@@]2(CC(=O)O)C(=O)O)ccc1OCc1ccccc1 (relative stereo)
relational_operator: <
value_reported: 5

====

test system: Trypanosoma brucei brucei; test: Antimicrobial activity against bloodstream forms of Trypanosoma brucei brucei 90-13 at 10 ug/ml after 72 hrs by resazurin assay; format: functional; details: 90-13, 72 h

molecule: COc1cc([C@H]2c3sc(=O)[nH]c3SC[C@@]2(CC(=O)O)C(=O)O)ccc1OC(F)F (relative stereo)
measured_target: Trypanosoma brucei brucei
relational_operator: <
inhibition at 10 µg/mL (%): 5
//
molecule: O=C1C[C@]2(CSc3[nH]c(=O)sc3[C@@H]2c2ccccc2O)C(=O)N1c1ccc(O)cc1 (relative stereo)
measured_target: Trypanosoma brucei brucei
relational_operator: =
inhibition at 10 µg/mL (%): 18.5
//
molecule: CN(C)c1ccc([C@H]2c3sc(=O)[nH]c3SC[C@@]2(CC(=O)O)C(=O)O)cc1 (relative stereo)
measured_target: Trypanosoma brucei brucei
relational_operator: <
inhibition at 10 µg/mL (%): 5
//
molecule: COc1ccc([C@H]2c3sc(=O)[nH]c3SC[C@]23CC(=O)N(c2ccc(Cl)cc2)C3=O)cc1OC (relative stereo)
measured_target: Trypanosoma brucei brucei
relational_operator: =
inhibition at 10 µg/mL (%): 93.6
//
molecule: CCN(CC)c1ccc([C@H]2c3sc(=O)[nH]c3SC[C@]23CC(=O)N(c2ccc(Cl)cc2)C3=O)cc1 (relative stereo)
measured_target: Trypanosoma brucei brucei
relational_operator: =
inhibition at 10 µg/mL (%): 98.2
//
molecule: COc1ccc([C@H]2c3sc(=O)[nH]c3SC[C@]23CC(=O)N(c2ccc(Cl)cc2)C3=O)cc1 (relative stereo)
measured_target: Trypanosoma brucei brucei
relational_operator: =
inhibition at 10 µg/mL (%): 13
//
molecule: CN(C)c1ccc([C@H]2c3sc(=O)[nH]c3SC[C@]23CC(=O)N(c2ccc(Cl)cc2)C3=O)cc1 (relative stereo)
measured_target: Trypanosoma brucei brucei
relational_operator: =
inhibition at 10 µg/mL (%): 98.2
